Just for reference, the supplement of paper PMC10065799 is where these values come from.

test system: Fer (mouse); assay: phosphorylation enrichment, bacterial display (enrichment ratio); higher = better substrate or ligand; peptides without Tyr show the background
# binarize phosphorylation enrichment: threshold 0.6 inclusive, high side Met, low side Not met

Example results:
sequence_string: PLFRKYWPNHI [GREB1L_Y1560_YF]
target_entity: Fer (mouse)
assigned_category: Not met
--
sequence_string: FEREQYADRAR [RBM4_Y355_YF]
target_entity: Fer (mouse);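 further: frequency after pTyr selection over input frequency; kinase dosed for 20-30% of maximal phosphorylation in three min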
assigned_category: Not met
--
sequence_string: TLSGTYQYIIA [FOXL2_Y81_I80T]
target_entity: Fer (mouse);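 further: frequency after pTyr selection over input frequency; kinase dosed for 20-30% of maximal phosphorylation in three min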
assigned_category: Met
--
sequence_string: TCFDKYTGNTF [FN1_Y101_YF]
target_entity: Fer (mouse);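 further: frequency after pTyr selection over input frequency; kinase dosed for 20-30% of maximal phosphorylation in three min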
assigned_category: Met
--
sequence_string: IHKEFYDGLFP [BCR_Y561]
target_entity: Fer (mouse);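 further: 11-residue human phosphosite peptides and single-mutation variants displayed on the E. coli surface, counted by deep sequencing, each peptide's frequency after selection divided by its frequency in the unselected input library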;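 further: frequency after pTyr selection over input frequency; kinase dosed for 20-30% of maximal phosphorylation in three min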
assigned_category: Met

Continue with the next sequence.
Is phosphorylation enrichment at least 0.6? Consider CTTIHYNFLCN [TP53_Y234_M237L_YF] Not met

----------
biological target: Grb2 SH2 (UniProt P62993); test: SH2 binding enrichment of the phosphorylated peptide, bacterial display (enrichment ratio); higher = better substrate or ligand; peptides without Tyr show the background
Sequence (P62993 whole entry, looked up): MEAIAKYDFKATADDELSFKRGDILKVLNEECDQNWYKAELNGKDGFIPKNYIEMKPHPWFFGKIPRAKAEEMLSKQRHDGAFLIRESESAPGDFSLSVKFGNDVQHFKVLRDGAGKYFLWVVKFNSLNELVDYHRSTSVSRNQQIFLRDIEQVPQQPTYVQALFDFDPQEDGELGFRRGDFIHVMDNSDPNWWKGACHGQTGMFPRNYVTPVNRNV
# binarize SH2 binding enrichment: threshold 0.9 inclusive, high side condition met, low side condition not met

Example results:
sequence_string: FDEFRYRSVIK [CFTR_Y517_YF]
target_entity: Grb2 SH2 (UniProt P62993)
assigned_category: condition not met
//
sequence_string: LFLACYCIGGG [UBD_Y161]
target_entity: Grb2 SH2 (UniProt P62993)
assigned_category: condition met
//
sequence_string: KAIMTYVFSFY [ACTN4_Y260_S262F]
target_entity: Grb2 SH2 (UniProt P62993)
assigned_category: condition met
//
sequence_string: IHKEFYDGLFP [BCR_Y561]
target_entity: Grb2 SH2 (UniProt P62993)
assigned_category: condition met
//
sequence_string: CLNAIYQNNLT [GSR_Y158_R153C]
target_entity: Grb2 SH2 (UniProt P62993)
assigned_category: condition met
//
sequence_string: KFMVGYEMLAK [GALT_Y339_Q344K]
target_entity: Grb2 SH2 (UniProt P62993)
assigned_category: condition not met
//
sequence_string: SMAKYYASEIA [ACADSB_Y373]
target_entity: Grb2 SH2 (UniProt P62993)
assigned_category: condition not met
//
sequence_string: IGRHAYGDQFR [IDH1_Y135_YF]
target_entity: Grb2 SH2 (UniProt P62993)
assigned_category: condition met

Is SH2 binding enrichment at least 0.9? Consider VFAPDYIAGVS [NOB1_Y366] condition met

Can you check LKALHYMVQTS [SACS_Y3367] next? condition not met

Can you check FHKALYTVRTF [PDE6C_Y266_S270T_YF] next? condition not met

Can you check EQLRAYLEGTC [HLA-C_Y183] next? condition not met

Can you check PKAWNYELPAT [PROM1_Y34] next? condition met

Can you check IMWDSYTTNKV [GNB3_Y85_V81M] next? condition not met

Can you check TFMKQYPKVFL [CNBD1_Y70] next? condition not met

Can you check YTGNTYRVGDT [FN1_Y106] next? condition not met

Can you check VEDHDYEGGIG [TKT_Y564_Y563D] next? condition not met

Can you check SVTCTCSPALN [TP53_Y126_Y126C] next? condition not met

Can you check AQAGEYGAEAL [HBA1_Y25_H21Q] next? condition met

Can you check KNDSIYVVKGN [KIT_Y823_N822I] next? condition not met

Can you check TDHLQYFDSNK [ARAP1_Y359_R358Q] next? condition met

Can you check KLVRLYAVVTR [LYN_Y306] next? condition met

Can you check RGKDSYETSKL [SPP1_Y225_Q229K] next? condition met

Can you check KSVVTYSPTTG [ITGB3BP_Y32_I30V] next? condition not met

Can you check TEDELYQLSLQ [RASGRP2_Y378] next? condition not met
